- testSystem: sGC (Homo sapiens, UniProt Q02108+Q02153)
- Construct: Full-length sGC was purified from Sf9 cells as described previously
- Sequence (Q02108 whole entry): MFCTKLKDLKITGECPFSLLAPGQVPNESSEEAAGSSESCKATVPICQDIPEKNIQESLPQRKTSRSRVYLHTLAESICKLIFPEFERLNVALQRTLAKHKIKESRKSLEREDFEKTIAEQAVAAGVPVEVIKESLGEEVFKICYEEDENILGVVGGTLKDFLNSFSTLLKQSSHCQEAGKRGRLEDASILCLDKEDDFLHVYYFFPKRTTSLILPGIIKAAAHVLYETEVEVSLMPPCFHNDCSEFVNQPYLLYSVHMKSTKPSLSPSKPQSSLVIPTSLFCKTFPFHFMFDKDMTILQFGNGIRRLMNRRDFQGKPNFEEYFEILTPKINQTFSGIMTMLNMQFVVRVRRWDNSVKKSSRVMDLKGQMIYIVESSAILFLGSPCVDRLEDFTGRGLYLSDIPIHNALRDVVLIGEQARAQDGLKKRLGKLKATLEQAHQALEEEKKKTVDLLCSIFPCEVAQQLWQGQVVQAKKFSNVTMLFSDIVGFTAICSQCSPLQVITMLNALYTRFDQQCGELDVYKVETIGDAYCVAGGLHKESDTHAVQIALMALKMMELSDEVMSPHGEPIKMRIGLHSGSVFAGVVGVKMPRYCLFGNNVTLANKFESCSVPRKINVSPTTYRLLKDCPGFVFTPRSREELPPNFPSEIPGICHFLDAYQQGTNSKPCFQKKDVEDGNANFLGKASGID
- Sequence (Q02153 whole entry): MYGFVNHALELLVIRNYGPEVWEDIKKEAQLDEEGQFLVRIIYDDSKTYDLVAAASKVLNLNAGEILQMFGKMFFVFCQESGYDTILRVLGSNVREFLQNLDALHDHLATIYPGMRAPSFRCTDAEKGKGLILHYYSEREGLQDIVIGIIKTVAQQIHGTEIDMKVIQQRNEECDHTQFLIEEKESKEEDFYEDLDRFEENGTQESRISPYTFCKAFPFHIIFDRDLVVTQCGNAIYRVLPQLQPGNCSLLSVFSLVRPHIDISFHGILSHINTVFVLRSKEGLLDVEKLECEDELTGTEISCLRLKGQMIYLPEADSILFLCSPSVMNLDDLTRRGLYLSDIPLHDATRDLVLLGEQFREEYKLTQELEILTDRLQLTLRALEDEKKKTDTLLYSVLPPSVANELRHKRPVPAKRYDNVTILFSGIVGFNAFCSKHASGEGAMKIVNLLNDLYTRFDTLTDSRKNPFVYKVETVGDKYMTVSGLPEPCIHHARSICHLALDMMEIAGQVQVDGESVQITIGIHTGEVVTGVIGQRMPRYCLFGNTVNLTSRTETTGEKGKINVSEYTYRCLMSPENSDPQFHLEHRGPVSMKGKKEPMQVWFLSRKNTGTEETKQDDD
- protocol: sGC activity assay, endpoint QRET cGMP detection
- testParameters: 2 ng sGC, 0.5 mM GTP, 30 min at 37 °C; read-out: EC50 of concentration dependent sGC activation
pEC50: −log10 of the molar value.
quantityKind: pEC50

# compound, quantityKind, testResult
data = [
    ("OCc1ccc(-c2nn(Cc3ccccc3)c3ccccc23)o1 [YC-1]", "pEC50", 5.24),
    ("COC(=O)N(C)c1c(N)nc(-c2nn(Cc3ccccc3F)c3ncccc23)nc1N [riociguat]", "pEC50", 6.59),
    ("CCN(CC)/[N+]([O-])=N/O.CCNCC [DEA-NO, diethylamine NONOate]", "pEC50", 6.03),
]

====

IC50 listing for selected molecules.
- Tested on: PDEs in mouse brain homogenate
- protocol: cGMP hydrolysis (PDE activity) in mouse brain homogenate
- Format: biochemical
- testParameters: 0.1 mg/ml homogenate, 50 µM cGMP, 15 min at 37 °C, 3 µM MT2; read-out: apparent IC50 of cGMP hydrolysis in mouse brain homogenate
- Procedure: PDE inhibitors with varying specificity profile, BAY73-6691, sildenafil, and IBMX (0–500 µM), were assayed in a high-speed supernatants of mouse brain homogenates. Reactions were performed in 5 µL volume in the presence of 0.1 mg/ml of homogenate and 50 µM cGMP. After 15 min incubation at 37 °C, detection solution (0.4 µg/ml cGMP antibody, 5 nM Eu(III)-cGMP, and 3.0 µM MT2) was added and TRF-signals were recorded.

# molecule, IC50 (µM)
data = [
    ("C[C@H](Cc1nc2c(cnn2-c2ccccc2Cl)c(=O)[nH]1)C(F)(F)F", 81.3),
    ("CCCc1nn(C)c2c(=O)[nH]c(-c3cc(S(=O)(=O)N4CCN(C)CC4)ccc3OCC)nc12", 45.2),
    ("CC(C)Cn1c(=O)n(C)c(=O)c2[nH]cnc21", 9.9),
]
